- Test system: human platelet suspension (platelet aggregation caused by TxA2 agonist U46619)
- test_summary: Platelet aggregation reaction test, U46619-induced
- Format: cell-based
attribute_measured: pIC50
Answer as the number alone; pIC50 is minus log10 of concentration in mol/L.

Below are worked cases with known answers.
- CCOC(=O)COc1ccccc1C(=O)C=Cc1cccs1: 4.15
- CCOC(=O)COc1cc(O)ccc1C(=O)C=Cc1ccc(F)cc1: 4.25
- CC(C)=CCOc1ccc(C=CC(=O)c2ccccc2OCCCCCC(=O)O)cc1: 6.34
- O=C(O)COc1ccccc1C(=O)C=Cc1ccccc1: 5.18
- COC(=O)CCCOc1cc(OCC=C(C)C)ccc1C(=O)CCc1ccc(OCC=C(C)C)cc1: 4.97
- CCOC(=O)COc1ccccc1C(=O)C=Cc1ccc(O)cc1 [Compound 47]: 4.45
- CCOC(=O)COc1cc(O)ccc1C(=O)C=Cc1ccc(O)c(O)c1: 4.46
- CCOC(=O)COc1ccccc1C(=O)C=Cc1ccc(N)cc1: 4.19
- CCOC(=O)CCCOc1ccccc1C(=O)C=Cc1ccc(OCC=C(C)CCC=C(C)C)cc1: 5.56
- COC(=O)CCCOc1ccccc1C(=O)C=Cc1ccccc1: 4.87

Next up:
Specify reported pIC50 for the compound shown: `CC(C)=CCCC(C)=CCOc1ccc(C(=O)C=Cc2ccccc2)c(OCCCC(=O)O)c1`
6.31

----------
Listed next: entries and their corresponding pIC50.
- Tested on: human platelet suspension (platelet aggregation caused by TxA2 agonist U46619)
- test_summary: Platelet aggregation reaction test, U46619-induced
- Format: cell-based
pIC50: −log10 of the molar value.

Specify reported pIC50 for the compound shown: `COC(=O)COc1cc(OCc2ccc(F)cc2)ccc1C(=O)C=Cc1ccc(OCc2ccc(F)cc2)cc1`
< 4.00

Specify reported pIC50 for the compound shown: `CCCCCCCCOc1ccc(C=CC(=O)c2ccc(OCCCCCCCC)cc2OCC(=O)OC)cc1`
< 4.30

Specify reported pIC50 for the compound shown: `COC(=O)COc1cc(OCc2ccc(OC)cc2)ccc1C(=O)C=Cc1ccc(OCc2ccc(OC)cc2)cc1`
< 4.00

----------
- System: human platelet suspension (platelet aggregation caused by TxA2 agonist U46619)
- test_summary: Platelet aggregation reaction test, U46619-induced
- Format: cell-based
attribute_measured: pIC50
Answer as the number alone; pIC50 is minus log10 of concentration in mol/L.

* O=C(O)COc1ccccc1C(=O)C=Cc1ccc(Br)s1 | 4.14
* CC1=C(C)C(=O)C(C(CCCCCC(=O)O)c2ccccc2)=C(C)C1=O (centres unmarked) [Seratrodast, reference compound] | 6.15

Next up:
Specify reported pIC50 for the compound shown: `O=C(O)CCCCCOc1ccccc1C(=O)C=Cc1ccco1`
6.30

----------
- Test system: human platelet suspension (platelet aggregation caused by TxA2 agonist U46619)
- test_summary: Platelet aggregation reaction test, U46619-induced
- Format: cell-based
Field: label. Allowed values: label 1 (IC50 < 4 µM) or label 0 (IC50 >= 4 µM).

* O=C(O)CCCCCOc1cc(F)ccc1C(=O)/C=C/c1ccccc1 [Compound 11] | label 0

Please determine if COC(=O)COc1cc(O)ccc1C(=O)C=Cc1ccc(O)cc1 [Compound 69] is below 4 µM in terms of IC50.
label 0

Please determine if CC(C)=CCOc1ccc(C(=O)/C=C/c2ccc(F)cc2)c(OCCCC(=O)O)c1 [Compound 15] is below 4 µM in terms of IC50.
label 1

Please determine if O=C(O)COc1ccccc1C(=O)C=Cc1cccs1 [Compound 57] is below 4 µM in terms of IC50.
label 0

Please determine if O=C(O)COc1cc(OCc2ccc(F)cc2)ccc1C(=O)C=Cc1ccc(OCc2ccc(F)cc2)cc1 [Compound 89] is below 4 µM in terms of IC50.
label 1

Please determine if CC(C)=CCOc1ccc(C=CC(=O)c2ccccc2OCCCCC(=O)O)cc1 [Compound 102] is below 4 µM in terms of IC50.
label 1

----------
- Test system: human platelet suspension (platelet aggregation caused by TxA2 agonist U46619)
- test_summary: Platelet aggregation reaction test, U46619-induced
- Type: cell-based
Listed next: entries and their corresponding IC50.
Only the number, expressed in µM, is required.

• CCOC(=O)CCCCCOc1ccccc1C(=O)C=Cc1ccccc1 = 0.16

Specify reported IC50 for the molecule shown: `CC(C)=CCOc1ccc(/C=C/C(=O)c2ccc(OCC=C(C)C)cc2OCC(=O)O)cc1`
16

----------
- System: human platelet suspension (platelet aggregation caused by TxA2 agonist U46619)
- test_summary: Platelet aggregation reaction test, U46619-induced
- Format: cell-based
attribute_measured: pIC50
Answer as the number alone; pIC50 is minus log10 of concentration in mol/L.

Below are worked cases with known answers.
- CC(C)=CCCC(C)=CCOc1ccc(C=CC(=O)c2ccc(F)cc2OCCCC(=O)O)cc1: 5.28
- CCOC(=O)CCCCCOc1ccccc1C(=O)C=Cc1ccco1: 6.32
- CC(C)=CCOc1ccc(C(=O)/C=C/c2ccc(Cl)cc2)c(OCC(=O)O)c1: 4.36
- O=C(O)CCCCCOc1ccccc1C(=O)C=Cc1nccs1: 4.29
- O=C(O)COc1ccccc1C(=O)C=Cc1ccco1: 4.14
- CC(C)=CCCC(C)=CCOc1ccc(C(=O)C=Cc2ccc(OCC=C(C)C)cc2)c(OCCCC(=O)O)c1: 5.35
- CC(C)=CCCC(C)=CCOc1ccc(C=CC(=O)c2ccc(OCC=C(C)CCC=C(C)C)cc2OCCCC(=O)O)cc1 [Compound 6]: 5.44
- O=C(O)CCCCCCCOc1ccccc1C(=O)C=Cc1ccccc1: 5.60

Specify reported pIC50 for the compound shown: O=C(O)CCCCCOc1ccccc1C(=O)CCc1ccccc1 [Compound 49]
6.30

Specify reported pIC50 for the compound shown: `CCOC(=O)COc1ccc(C=CC(=O)c2ccc(OCC(=O)OCC)cc2OCC(=O)OC)cc1`
5.06

Specify reported pIC50 for the compound shown: `COC(=O)COc1cc(O)ccc1C(=O)CCc1ccc(O)cc1`
4.32

Specify reported pIC50 for the compound shown: `O=C(O)COc1cc(F)ccc1C(=O)C=Cc1ccc(F)cc1`
5.67

Specify reported pIC50 for the compound shown: `CC(C)=CCOc1ccc(C(=O)/C=C/c2ccccc2)c(OCC(=O)O)c1`
4.36

Specify reported pIC50 for the compound shown: `CC(C)=CCOc1cccc(/C=C/C(=O)c2ccc(OCC=C(C)C)cc2OCC(=O)O)c1`
4.69

----------
- Tested on: human platelet suspension (platelet aggregation caused by TxA2 agonist U46619)
- test_summary: Platelet aggregation reaction test, U46619-induced
- Format: cell-based
Listed next: entries and their corresponding pIC50.
Answer as the number alone; pIC50 is minus log10 of concentration in mol/L.

Below are worked cases with known answers.
* CCOC(=O)COc1ccccc1C(=O)C=Cc1ccc(O)cc1 [Compound 42] | 4.41
* O=C(O)CCCCCOc1cc(F)ccc1C(=O)/C=C/c1ccc(F)cc1 [Compound 16] | 6.43
* O=C(O)CCCCCOc1ccccc1C(=O)/C=C/c1cccc(F)c1 [Compound 2] | 7.30

Next up:
Specify reported pIC50 for the molecule shown: CCOC(=O)CCCCCOc1ccccc1C(=O)C=Cc1ccccc1F [Compound 38]
7.52

----------
Listed next: entries and their corresponding IC50.
- Tested on: human platelet suspension (platelet aggregation caused by TxA2 agonist U46619)
- test_summary: Platelet aggregation reaction test, U46619-induced
- Type: cell-based

Below are worked cases with known answers.
* CCCCCCCCOc1ccc(C=CC(=O)c2ccc(OCCCCCCCC)cc2OCC(=O)O)cc1 | > 100 µM
* CCCCCCOc1ccc(C=CC(=O)c2ccc(OCCCCCC)cc2OCC(=O)OC)cc1 | > 50 µM

Next up:
Specify reported IC50 for the compound shown: `CCOC(=O)COc1cc(OC)ccc1C(=O)C=Cc1ccc(OC)cc1`
> 100 µM
